MEASURED TARGET: Protease (Human immunodeficiency virus 1) (UniProt Q9YQ12)
Sequence (Q9YQ12 as listed by the source): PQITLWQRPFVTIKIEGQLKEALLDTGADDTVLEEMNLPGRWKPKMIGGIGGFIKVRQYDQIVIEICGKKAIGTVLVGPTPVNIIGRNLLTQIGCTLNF
EXPERIMENT NOTES: Inhibition of HIV1 recombinant protease at 1 nM after 3 hrs by fluorescence assay
READOUT TYPE: inhibition (%)
Answer in %, number only, no unit symbol.

{"LINE NOTATION": "Cc1c(O)cccc1C(=O)N[C@@H](Cc1ccccc1)[C@H](O)C(=O)N1CSC(C)(C)[C@H]1C(=O)N[C@@H](C)c1ccccc1", "NUMERIC RESULT": 31}

Form field: reported inhibition of Cc1ccccc1CNC(=O)[C@H]1N(C(=O)[C@@H](O)[C@H](Cc2ccccc2)NC(=O)c2cccc(O)c2C)CSC1(C)C
72

Form field: reported inhibition of Cc1cccc(Cl)c1CNC(=O)[C@H]1N(C(=O)[C@@H](O)[C@H](Cc2ccccc2)NC(=O)c2cccc(O)c2C)CSC1(C)C
77

====

# inhibition values compiled below
MEASURED TARGET: Protease (Human immunodeficiency virus 1)
EXPERIMENT NOTES: Inhibition of HIV1 recombinant protease at 50 nM after 15 mins by fluorescence assay
Answer in %, number only, no unit symbol.

Worked examples follow.
{"LINE NOTATION": "C=CCNC(=O)[C@H]1N(C(=O)[C@@H](O)[C@H](Cc2ccccc2)NC(=O)COc2c(C)cc(N)cc2C)CSC1(C)C", "UNIT SPEC": "%", "inhibition": 91}
{"LINE NOTATION": "Cc1c(O)cccc1C(=O)N[C@@H](Cc1ccccc1)[C@H](O)C(=O)N1CSC(C)(C)[C@H]1C(=O)N[C@H](C)c1ccccc1", "UNIT SPEC": "%", "inhibition": 52}
{"LINE NOTATION": "Cc1cc(N)cc(C)c1OCC(=O)N[C@@H](Cc1ccccc1)[C@H](O)C(=O)N1CSC(C)(C)[C@H]1C(=O)NC(C)(C)C", "UNIT SPEC": "%", "inhibition": 92}
{"LINE NOTATION": "Cc1c(O)cccc1C(=O)N[C@@H](Cc1ccccc1)[C@H](O)C(=O)N1CSC(C)(C)[C@H]1C(=O)N[C@H]1c2ccccc2C[C@H]1O", "UNIT SPEC": "%", "inhibition": 92}

What measured inhibition is associated with Cc1c(O)cccc1C(=O)N[C@@H](Cc1ccccc1)[C@H](O)C(=O)N1CSC(C)(C)[C@H]1C(=O)NCc1c(F)cccc1Cl on Protease (Human immunodeficiency virus 1)?
97

What measured inhibition is associated with Cc1c(O)cccc1C(=O)N[C@@H](Cc1ccccc1)[C@H](O)C(=O)N1CSC(C)(C)[C@H]1C(=O)N[C@@H](C)c1ccccc1 on Protease (Human immunodeficiency virus 1)?
95

What measured inhibition is associated with CCCNC(=O)[C@H]1N(C(=O)[C@@H](O)[C@H](Cc2ccccc2)NC(=O)c2cccc(O)c2C)CSC1(C)C on Protease (Human immunodeficiency virus 1)?
88

====

Tested on: Human immunodeficiency virus 1
EXPERIMENT NOTES: Antiviral activity against HIV1 3B infected in human MT4 cells assessed as inhibition of virus-induced cytopathic effect after 5 days by MTT assay in presence of 50% human serum
Assay type: functional, organism-based
STATED CONDITIONS: Human immunodeficiency virus 1, 3B, MT4, 120 h
READOUT TYPE: log10(EC50) (log10 of the value in nM)
A difference of one corresponds to tenfold EC50; all values are log10 with EC50 in nM.

{"LINE NOTATION": "Cc1cc(N)cc(C)c1OCC(=O)N[C@@H](Cc1ccccc1)[C@H](O)C(=O)N1CSC(C)(C)[C@H]1C(=O)NC1CCCC1", "READOUT TYPE": "log10(EC50)", "NUMERIC RESULT": 3.28}
{"LINE NOTATION": "Cc1cc(N)cc(C)c1OCC(=O)N[C@@H](Cc1ccccc1)[C@H](O)C(=O)N1CSC(C)(C)[C@H]1C(=O)NC(C)(C)C", "READOUT TYPE": "log10(EC50)", "NUMERIC RESULT": 2.78}
{"LINE NOTATION": "Cc1cccc(C)c1CNC(=O)[C@H]1N(C(=O)[C@@H](O)[C@H](Cc2ccccc2)NC(=O)COc2c(C)cc(N)cc2C)CSC1(C)C", "READOUT TYPE": "log10(EC50)", "NUMERIC RESULT": 2.18}

Form field: reported log10(EC50) of Cc1ccccc1CNC(=O)[C@H]1N(C(=O)[C@@H](O)[C@H](Cc2ccccc2)NC(=O)COc2c(C)cc(N(C)C)cc2C)CSC1(C)C
3.59

Form field: reported log10(EC50) of Cc1ccccc1CNC(=O)[C@H]1N(C(=O)[C@@H](O)[C@H](Cc2ccccc2)NC(=O)COc2c(C)cc(N)cc2C)CSC1(C)C
2.40

Form field: reported log10(EC50) of Cc1cc(N)cc(C)c1OCC(=O)N[C@@H](Cc1ccccc1)[C@H](O)C(=O)N1CSC(C)(C)[C@H]1C(=O)NC/C=C\CO
2.64

Form field: reported log10(EC50) of Cc1cccc(C)c1OCC(=O)N[C@@H](Cc1ccccc1)[C@H](O)C(=O)N1CSC(C)(C)[C@H]1C(=O)NC(C)(C)C
3.65

Form field: reported log10(EC50) of Cc1cc(N)cc(C)c1OCC(=O)N[C@@H](Cc1ccccc1)[C@H](O)C(=O)N1CSC(C)(C)[C@H]1C(=O)N[C@H]1c2ccccc2C[C@H]1O
3.18

Form field: reported log10(EC50) of Cc1cc(N)cc(C)c1OCC(=O)N[C@@H](Cc1ccccc1)[C@H](O)C(=O)N1CSC(C)(C)[C@H]1C(=O)NCc1c(Cl)cccc1Cl
2.81

Form field: reported log10(EC50) of Cc1cc(N)cc(C)c1OCC(=O)N[C@@H](Cc1ccccc1)[C@H](O)C(=O)N1CSC(C)(C)[C@H]1C(=O)N[C@H]1CCc2ccccc21
2.38

Form field: reported log10(EC50) of C=CCNC(=O)[C@H]1N(C(=O)[C@@H](O)[C@H](Cc2ccccc2)NC(=O)COc2c(C)cc(N)cc2C)CSC1(C)C
2.45

Form field: reported log10(EC50) of CNc1cc(C)c(OCC(=O)N[C@@H](Cc2ccccc2)[C@H](O)C(=O)N2CSC(C)(C)[C@H]2C(=O)NCc2ccccc2C)c(C)c1
2.75
